System: MDR1
Assay: MDCK-MDR1 permeability assay (BBB penetration potential)
Type: in vitro ADME
Settings: dog, MDCK-MDR1, pH 7.4, MDCK-MDR1: Papp A-B
Reported metric: Papp A→B at 120 min, 5 μM (×10⁻⁶ cm/s)
Number in ×10⁻⁶ cm/s, nothing else.

Enter reported Papp A→B at 120 min, 5 μM observed with MDR1 for Oc1cc(-c2cn[nH]c2)ccc1-c1ccc(O[C@H]2C[C@@H]3CC(F)(F)[C@H](C2)N3)nn1 (single isomer, unassigned)
18.3

Enter reported Papp A→B at 120 min, 5 μM observed with MDR1 for Cn1cc(-c2cc(O)c(-c3ccc(O[C@@H]4C[C@H]5CC[C@H](N5)[C@@H]4F)nn3)cc2F)cn1 (single isomer, unassigned)
4.83

Enter reported Papp A→B at 120 min, 5 μM observed with MDR1 for C[C@]12CC[C@](C)(N1)[C@H](F)[C@H](Oc1ccc(-c3ccc(C#N)cc3O)nn1)C2 (single isomer, unassigned)
11.6

Enter reported Papp A→B at 120 min, 5 μM observed with MDR1 for Cn1ccc2cc(-c3ccc(O[C@H]4C[C@]5(C)CCC[C@@](C)(N5)[C@H]4F)nn3)c(O)cc2c1=O (single isomer, unassigned)
4.9

Enter reported Papp A→B at 120 min, 5 μM observed with MDR1 for Oc1cc(-c2ccc3cncn3c2)ccc1-c1ccc(O[C@@H]2C[C@H]3CCC[C@H](N3)[C@@H]2F)nn1 (single isomer, unassigned)
2.12

Enter reported Papp A→B at 120 min, 5 μM observed with MDR1 for Cc1ccc(-c2ccc(-c3ccc(O[C@H]4C[C@@H]5CCC[C@@H](N5)[C@H]4F)nn3)c(O)c2)cn1 (single isomer, unassigned)
3.34

Okay, now this molecule:
Enter reported Papp A→B at 120 min, 5 μM observed with MDR1 for Cn1cc(-c2ccc(-c3ccc(O[C@H]4C[C@H]5CCC[C@H](N5)[C@H]4F)nn3)c(O)c2)cn1 (single isomer, unassigned)
4.73

Entry source: patent US12522597B2
